Source: ChEMBL document CHEMBL4265915

Test System: Neurogenic locus notch homolog protein 1 (Homo sapiens)
Sequence (P46531 19-2555 limits assumed): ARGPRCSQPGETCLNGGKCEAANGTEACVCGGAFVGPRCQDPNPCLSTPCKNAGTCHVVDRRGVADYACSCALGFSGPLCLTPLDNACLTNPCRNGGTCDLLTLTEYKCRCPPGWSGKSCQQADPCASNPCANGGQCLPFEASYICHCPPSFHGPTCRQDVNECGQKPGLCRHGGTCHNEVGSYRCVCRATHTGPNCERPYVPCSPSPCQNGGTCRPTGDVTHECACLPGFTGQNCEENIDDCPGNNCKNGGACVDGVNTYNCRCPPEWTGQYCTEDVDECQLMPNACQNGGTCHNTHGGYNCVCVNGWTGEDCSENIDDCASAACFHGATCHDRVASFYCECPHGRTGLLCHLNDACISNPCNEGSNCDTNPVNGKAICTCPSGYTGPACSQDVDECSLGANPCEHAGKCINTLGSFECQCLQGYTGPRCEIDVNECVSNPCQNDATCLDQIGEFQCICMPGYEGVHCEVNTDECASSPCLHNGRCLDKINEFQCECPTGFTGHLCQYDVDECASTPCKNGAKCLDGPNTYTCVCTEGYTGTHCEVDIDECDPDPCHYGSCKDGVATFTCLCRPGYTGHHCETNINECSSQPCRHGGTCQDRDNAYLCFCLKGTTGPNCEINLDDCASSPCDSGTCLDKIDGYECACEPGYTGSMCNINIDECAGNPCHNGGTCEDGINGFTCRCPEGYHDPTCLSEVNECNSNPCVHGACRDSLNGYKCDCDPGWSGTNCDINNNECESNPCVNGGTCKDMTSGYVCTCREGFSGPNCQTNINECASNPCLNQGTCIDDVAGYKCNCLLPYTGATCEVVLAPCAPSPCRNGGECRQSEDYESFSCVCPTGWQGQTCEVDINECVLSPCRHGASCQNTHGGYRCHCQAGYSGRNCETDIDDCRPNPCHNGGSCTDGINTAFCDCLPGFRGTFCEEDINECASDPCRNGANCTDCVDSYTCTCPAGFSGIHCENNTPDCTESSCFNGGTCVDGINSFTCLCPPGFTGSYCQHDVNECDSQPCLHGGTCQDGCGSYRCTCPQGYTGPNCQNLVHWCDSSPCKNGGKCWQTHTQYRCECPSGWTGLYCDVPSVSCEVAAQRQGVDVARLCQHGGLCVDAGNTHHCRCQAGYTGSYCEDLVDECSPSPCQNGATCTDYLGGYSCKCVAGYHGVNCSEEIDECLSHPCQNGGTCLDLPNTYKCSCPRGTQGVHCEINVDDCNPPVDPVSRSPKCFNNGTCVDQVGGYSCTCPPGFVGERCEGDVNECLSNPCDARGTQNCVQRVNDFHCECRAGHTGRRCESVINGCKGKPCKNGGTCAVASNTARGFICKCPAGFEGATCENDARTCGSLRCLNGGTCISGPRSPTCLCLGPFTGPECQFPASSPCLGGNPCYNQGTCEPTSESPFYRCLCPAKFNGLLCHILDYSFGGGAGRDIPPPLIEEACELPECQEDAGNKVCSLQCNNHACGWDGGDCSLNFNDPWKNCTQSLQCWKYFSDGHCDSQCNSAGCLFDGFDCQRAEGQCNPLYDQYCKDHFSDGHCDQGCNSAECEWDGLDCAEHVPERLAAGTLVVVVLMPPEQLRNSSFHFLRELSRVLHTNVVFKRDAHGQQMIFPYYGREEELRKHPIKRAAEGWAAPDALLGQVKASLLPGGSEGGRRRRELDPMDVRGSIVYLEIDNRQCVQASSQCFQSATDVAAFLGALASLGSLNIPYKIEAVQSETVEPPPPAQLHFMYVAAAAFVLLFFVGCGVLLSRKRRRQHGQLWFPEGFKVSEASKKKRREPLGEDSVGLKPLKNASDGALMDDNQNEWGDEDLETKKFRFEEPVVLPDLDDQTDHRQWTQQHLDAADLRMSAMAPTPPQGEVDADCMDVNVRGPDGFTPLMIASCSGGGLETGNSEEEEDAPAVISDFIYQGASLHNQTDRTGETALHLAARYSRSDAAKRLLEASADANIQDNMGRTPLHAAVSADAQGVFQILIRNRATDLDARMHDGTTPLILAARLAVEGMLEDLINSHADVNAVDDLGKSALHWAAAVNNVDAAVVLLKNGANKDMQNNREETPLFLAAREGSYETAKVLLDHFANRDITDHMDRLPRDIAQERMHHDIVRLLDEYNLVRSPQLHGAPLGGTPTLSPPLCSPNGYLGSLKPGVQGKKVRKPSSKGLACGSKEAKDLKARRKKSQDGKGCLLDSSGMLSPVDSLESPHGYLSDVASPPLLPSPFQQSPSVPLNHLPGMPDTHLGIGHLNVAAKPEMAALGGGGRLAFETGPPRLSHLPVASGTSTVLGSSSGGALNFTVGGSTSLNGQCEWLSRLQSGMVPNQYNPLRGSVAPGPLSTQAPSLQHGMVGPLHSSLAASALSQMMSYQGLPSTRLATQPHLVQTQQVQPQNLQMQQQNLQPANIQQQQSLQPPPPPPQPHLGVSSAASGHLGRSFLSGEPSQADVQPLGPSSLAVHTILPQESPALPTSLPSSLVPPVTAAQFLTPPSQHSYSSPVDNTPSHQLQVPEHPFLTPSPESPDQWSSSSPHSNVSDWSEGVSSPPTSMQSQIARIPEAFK
Assay Details: Inhibition of Notch1 deltaE mutant (unknown origin) expressed in HEK293 cells after 16 hrs by […] luciferase reporter gene assay
pIC50: −log10 of the molar value.
pIC50 by entry:

molecule="CC1=C(C(=O)OC2CCN(C(=O)OC(C)(C)C)CC2)C(c2cccc(Br)c2)C2=C(CC(C)(C)CC2=O)N1 (stereo not drawn)" assay_readout=pIC50 experimental_result="< 5.00"
molecule="CC1=C(C(=O)OCC2CCN(C(=O)OC(C)(C)C)CC2)C(c2cccc(C(C)C)c2)C2=C(CC(C)(C)CC2=O)N1 (stereo not drawn)" assay_readout=pIC50 experimental_result=5.48

We now examine a further molecule.
I would be grateful if you could share the reported pIC50 for CC1=C(C(=O)OCC2CCN(C(=O)OC(C)(C)C)CC2)C(c2cccc([N+](=O)[O-])c2)C2=C(CC(C)(C)CC2=O)N1 (stereo not drawn) .
< 5.00
